# inhibition values compiled below
Experiment: blockers of Ca2+-induced mitochondrial swelling – biochemical, isolated mouse mitochondria, absorbance, primary screen (AID 602449);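 further: 0% = DMSO wells given calcium and 100% = 1 mM EGTA wells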
Details: 30 min, at 10 µM, active compounds read high
About 5,000 (1.4%) of roughly 360,000 compounds were called active. This is one part of a sample in which actives are shown more often than they occur.
The answer is to be given in %; state only the numeric part.

Examples with answers:
{"compound": "O=C(CN(Cc1ccccc1)C(=O)c1ccc2c(c1)OCCO2)NCc1ccc2c(c1)OCO2", "inhibition / %": -5.6}
{"compound": "O=C1c2ccccc2S(=O)(=O)N1Cc1c(F)cccc1Cl", "inhibition / %": -0.3}
{"compound": "Cc1ccccc1N1CC(C(=O)Nc2nnc(SCCC3OCCO3)s2)CC1=O (stereo unspecified)", "inhibition / %": -2.6}
{"compound": "Cc1c(C(=O)O)nnn1-c1nonc1N", "inhibition / %": -1.7}

I have this compound here, CC(=O)Nc1ccc(OCC(O)CN2CCN(c3ccccc3Cl)CC2)cc1 (stereo unspecified) , and I need its recorded inhibition.
-1.1

I have this compound here, `COc1cc(C(=O)NNC(=O)CN2C(=O)NC3(CCCC3)C2=O)cc(OC)c1OC` , and I need its recorded inhibition.
-0.8

I have this compound here, OC(COc1ccc(CN2CCSCC2)cc1)CN1CCCCC1 (stereo unspecified) , and I need its recorded inhibition.
1.1

I have this compound here, `COc1cccc(-c2cnc3c(NC(C)=O)cc(-c4cc(F)ccc4OC)cn23)c1` , and I need its recorded inhibition.
-0.3

I have this compound here, `O=C(/C=C/c1ccc(F)cc1)Nc1cccc(S(=O)(=O)Nc2cccc(C(F)(F)F)c2)c1` , and I need its recorded inhibition.
92.8

I have this compound here, `COc1ccccc1Nc1ncc(C(C)=O)c(C)n1` , and I need its recorded inhibition.
-2.1

I have this compound here, O=C(c1ccc(Cl)cc1)c1ccc(OCC(O)CN2CCCCC2)cc1 (stereo unspecified) , and I need its recorded inhibition.
96.3

###

Test: blockers of Ca2+-induced mitochondrial swelling – biochemical, isolated mouse mitochondria, absorbance, primary screen (AID 602449);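 further: 0% = DMSO wells given calcium and 100% = 1 mM EGTA wells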
Conditions: 30 min, at 10 µM, active compounds read high
Screen size: about 360,000 compounds; about 5,000 (1.4%) were called active. This is one part of a sample in which actives are shown more often than they occur.
quantity_name: inhibition (%)
The answer is to be given in %; state only the numeric part.

Examples with answers:
{"smiles_data": "Cc1cc(C)n2c(NCc3ccccc3)c(CC(C)C)nc2n1", "inhibition (%)": 0.4}
{"smiles_data": "CCCC[C@@H]1CN=C(N)N1CCc1cc(C(F)(F)F)cc(C(F)(F)F)c1", "inhibition (%)": 88.5}
{"smiles_data": "CCOc1ccc(OCC(=O)Nc2c3c(nn2C(C)(C)C)CS(=O)(=O)C3)cc1", "inhibition (%)": 1.2}
{"smiles_data": "CCOc1ncccc1C(=O)N(CC)CC(=O)Nc1ccc(NC(C)=O)cc1", "inhibition (%)": -0.1}
{"smiles_data": "CCCC[C@@H]1CN=C(N)N1CCCC", "inhibition (%)": 1.3}

I have this compound here, `COCCOCCn1cnc2ccccc21` , and I need its recorded inhibition.
-0.6

###

Test: blockers of Ca2+-induced mitochondrial swelling – biochemical, isolated mouse mitochondria, absorbance, primary screen (AID 602449);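 further: 0% = DMSO wells given calcium and 100% = 1 mM EGTA wells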
Conditions: 30 min, at 10 µM
Screen size: about 360,000 compounds; about 5,000 (1.4%) were called active.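 Rule for the calls: active = inhibition of 50% or more, scaled per plate between neutral and stimulator controls; inactive = the rest.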 Shown is part of a subset that was picked to be rich in actives.
Respond using exactly one of the listed classes: YES (active), NO (inactive)

// known answers, use as guide
{"molecule": "Cc1cc(Cl)c2oc(C(=O)NC(C)c3ccncn3)c(C)c2c1 (stereo not drawn)", "label_class": "NO"}
{"molecule": "COc1ccccc1N1CC(C(=O)Nc2nnc(SCC(=O)NC(C)C)s2)CC1=O (stereo not drawn)", "label_class": "NO"}
{"molecule": "CCc1nc2c(OCc3cccc(OC)c3)cccn2c1N(C)C(=O)C(C)C", "label_class": "NO"}

Test call, this molecule: `O=C(NNc1c2ccccc2nc2ccccc12)c1cc2ccccc2cc1O`
YES

Test call, this molecule: O=S1(=O)CC(NCc2ccccc2)C(Nc2ccc(Cl)cc2)C1 (stereo not drawn)
NO

Test call, this molecule: `N#CCCN(C(=S)Nc1ccc(Cl)c(Cl)c1)C1CCCCC1`
YES

Test call, this molecule: `O=C1[C@@H]2C(c3cccnc3)=NO[C@@H]2C(=O)N1c1ccc(Cl)cc1Cl`
NO

Test call, this molecule: `CCc1nc2c(OCc3ccc(F)c(F)c3)cccn2c1N(C)C(=O)c1ccco1`
NO

Test call, this molecule: `COc1ccc(Br)cc1C(=O)NC(=S)Nc1cc(-c2nc3ccccc3[nH]2)ccc1C`
YES

Test call, this molecule: `CCc1nnc(NS(=O)(=O)c2ccc(NC(=O)c3cccc(OC(F)(F)C(F)F)c3)cc2)s1`
NO

Test call, this molecule: `CN(C)CCNC(=O)c1cccc(-c2cnc3c(NC=O)cc(-c4cccc(C(F)(F)F)c4)cn23)c1`
NO

Test call, this molecule: `O=C(NCCNc1ccc([N+](=O)[O-])cc1)c1cccc2c(Br)cccc12`
YES

Test call, this molecule: `Cc1ccccc1CNC(=O)CCC(=O)N1Cc2ccccc2Oc2ncccc21`
NO

Test call, this molecule: `CCc1nc2c(OCc3ccccc3)cccn2c1N(C)C(=O)c1ccco1`
NO

Test call, this molecule: COc1ccc(C(=O)COC(=O)CN2C(=O)C3CC=CCC3C2=O)c(OC)c1 (stereo not drawn)
NO

Test call, this molecule: `O=[N+]([O-])c1ccc(NS(=O)(=O)c2ccccc2)c(Cl)c1`
YES

Taken from PubChem BioAssay AID602449.
